- measurement-target: UniProtKB P21918
- Sequence (P21918 whole entry): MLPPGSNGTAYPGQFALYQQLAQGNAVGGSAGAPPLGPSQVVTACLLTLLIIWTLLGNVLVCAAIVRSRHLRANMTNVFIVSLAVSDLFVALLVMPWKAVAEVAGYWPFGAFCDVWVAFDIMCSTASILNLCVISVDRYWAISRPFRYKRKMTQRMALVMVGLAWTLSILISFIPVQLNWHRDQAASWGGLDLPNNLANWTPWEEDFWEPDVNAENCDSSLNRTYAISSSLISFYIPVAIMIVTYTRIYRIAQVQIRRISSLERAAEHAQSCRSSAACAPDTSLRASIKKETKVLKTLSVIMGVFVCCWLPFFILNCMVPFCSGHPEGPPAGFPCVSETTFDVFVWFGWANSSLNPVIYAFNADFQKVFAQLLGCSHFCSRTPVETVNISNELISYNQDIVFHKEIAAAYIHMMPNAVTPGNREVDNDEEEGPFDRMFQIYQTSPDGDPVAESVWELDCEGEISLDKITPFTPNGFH
property-name: Ki (nM)
// return numeric value only (unit: nM, not printed)

Given CC(C)(C)C#Cc1ccc2c(c1)C=C([N+](=O)[O-])C(C(F)(F)F)O2 (stereo unspecified) , state its recorded Ki. 2100
